# tested-target: endogenous CGRP receptor (Homo sapiens, UniProt O60894+Q16602)
# Sequence (Q16602 23-461): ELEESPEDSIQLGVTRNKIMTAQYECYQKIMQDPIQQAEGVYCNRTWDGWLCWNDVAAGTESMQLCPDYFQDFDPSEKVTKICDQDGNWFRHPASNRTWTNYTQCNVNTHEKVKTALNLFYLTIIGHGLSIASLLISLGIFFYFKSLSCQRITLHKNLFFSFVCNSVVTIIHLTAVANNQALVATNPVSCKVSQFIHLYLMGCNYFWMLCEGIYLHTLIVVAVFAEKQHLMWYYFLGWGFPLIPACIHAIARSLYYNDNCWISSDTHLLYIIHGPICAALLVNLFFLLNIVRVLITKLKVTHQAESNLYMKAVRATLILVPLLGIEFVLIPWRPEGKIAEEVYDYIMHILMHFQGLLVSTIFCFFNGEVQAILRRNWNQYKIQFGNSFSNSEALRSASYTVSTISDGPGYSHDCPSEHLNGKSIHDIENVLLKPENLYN
# Sequence (O60894 27-148): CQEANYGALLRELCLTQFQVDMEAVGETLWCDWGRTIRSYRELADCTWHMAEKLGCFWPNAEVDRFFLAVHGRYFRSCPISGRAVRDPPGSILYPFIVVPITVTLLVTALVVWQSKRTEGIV
# method-notes: CGRP functional antagonism using SK-N-MC-BLA (4C10), β-lactamase transcriptional reporter assay
# Assay type: cell-based
# conditions: SK-N-MC (4C10) cells, inhibition of β-lactamase expression in the presence of 200 pM CGRP
value-type: IC50

Ask: Request - read-out IC50 | tested on endogenous CGRP receptor (Homo sapiens, UniProt O60894+Q16602) | molecule CC(C)CCN1C(=O)C(CC(=O)N2CCC3(CC2)CNC(=O)O3)SC1c1ccccc1 (stereo not shown) [Compound 261]
Result: > 5000 nM

Ask: Write down the reported IC50 of CC(C)(C)N1CCN(c2c(F)cccc2[C@@H]2S[C@@H](CC(=O)N3CCC(N4CCc5ccccc5NC4=O)CC3)C(=O)N2CCc2ccccc2)CC1 [Compound 508] , test system: endogenous CGRP receptor (Homo sapiens, UniProt O60894+Q16602).
Result: < 1000 nM

Ask: Entry CC(C)N1CCN(c2c(F)cccc2C2SC(CC(=O)N3CCC(n4c(=O)[nH]c5ncccc54)CC3)C(=O)N2CCC(C)(C)C)CC1 (stereo not shown) [Compound 341] , system endogenous CGRP receptor (Homo sapiens, UniProt O60894+Q16602): what IC50 was measured?
Result: < 1000 nM

Ask: Reported IC50 for endogenous CGRP receptor (Homo sapiens, UniProt O60894+Q16602), given CC(C)(C)CCN1C(=O)C(CC(=O)N2CCC(N3CCc4ccccc4NC3=O)CC2)SC1c1cccc(F)c1N1CCN(CC(F)(F)F)CC1 (stereo not shown) [Compound 392] ?
Result: > 5000 nM

Ask: Request body: readout IC50, system endogenous CGRP receptor (Homo sapiens, UniProt O60894+Q16602), query CC(C)CCN1C(=O)[C@H](CC(=O)N2CCC(N3Cc4ccccc4NC3=O)CC2)SC1c1ccccn1 (stereo partly shown) [Compound 176] . Return the value.
Result: 1000 to 5000 nM

Ask: Query IC50 on endogenous CGRP receptor (Homo sapiens, UniProt O60894+Q16602) for CC(C)(C)CCN1C(=O)C(CC(=O)N2CCC(N3Cc4ccccc4NC3=O)CC2)SC12CCCCCC2 (stereo not shown) [Compound 154]
Result: < 1000 nM

Ask: What IC50 appears in the records for this molecule with endogenous CGRP receptor (Homo sapiens, UniProt O60894+Q16602)? COc1ccc(C2SC(CC(=O)N3CCC(N4Cc5ccccc5NC4=O)CC3)C(=O)N2CCC(C)C)cc1F (stereo not shown) [Compound 18]
Result: 1000 to 5000 nM
